# Test target: UniProt:Q9NYK1
# Sequence (Q9NYK1 27-1049): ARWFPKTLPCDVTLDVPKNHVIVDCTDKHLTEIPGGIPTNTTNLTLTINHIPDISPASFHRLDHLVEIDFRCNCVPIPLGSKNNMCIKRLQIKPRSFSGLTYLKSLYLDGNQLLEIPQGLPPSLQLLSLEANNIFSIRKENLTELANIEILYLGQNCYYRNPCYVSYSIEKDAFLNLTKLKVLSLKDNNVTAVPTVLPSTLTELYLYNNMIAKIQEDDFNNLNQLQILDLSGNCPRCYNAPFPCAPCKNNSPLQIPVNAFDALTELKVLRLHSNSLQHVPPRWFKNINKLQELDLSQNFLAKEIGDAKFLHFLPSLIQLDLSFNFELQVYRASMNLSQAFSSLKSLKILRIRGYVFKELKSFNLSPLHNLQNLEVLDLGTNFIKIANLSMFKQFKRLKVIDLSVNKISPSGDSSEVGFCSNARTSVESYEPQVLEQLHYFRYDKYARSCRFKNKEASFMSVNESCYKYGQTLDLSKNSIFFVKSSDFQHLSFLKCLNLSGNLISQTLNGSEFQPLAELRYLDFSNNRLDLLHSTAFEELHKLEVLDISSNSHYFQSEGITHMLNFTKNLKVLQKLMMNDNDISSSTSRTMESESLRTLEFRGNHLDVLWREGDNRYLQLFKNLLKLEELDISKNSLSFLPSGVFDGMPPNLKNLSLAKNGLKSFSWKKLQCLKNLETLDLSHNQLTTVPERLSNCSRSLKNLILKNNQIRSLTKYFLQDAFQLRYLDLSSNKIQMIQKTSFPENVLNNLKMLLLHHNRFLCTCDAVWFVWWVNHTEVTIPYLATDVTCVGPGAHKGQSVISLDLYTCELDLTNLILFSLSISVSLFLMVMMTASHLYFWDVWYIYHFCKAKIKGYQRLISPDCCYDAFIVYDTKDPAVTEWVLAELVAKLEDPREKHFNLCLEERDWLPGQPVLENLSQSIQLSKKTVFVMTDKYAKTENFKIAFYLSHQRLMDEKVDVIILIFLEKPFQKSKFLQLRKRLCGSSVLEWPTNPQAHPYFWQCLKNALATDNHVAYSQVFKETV
# Test name: TLR7 inhibition reporter assay (HEK-Blue SEAP)
# Setup conditions: HEK-Blue cells overexpressing human TLR7, stimulated with gardiquimod 7.5 µM, 22 h incubation
Metric: IC50 (nM)

Below are worked cases with known answers.
Compound: Cc1cc2c(cc1-c1cc(C)c3ncnn3c1)[nH]c1ccc(C3CCNCC3)cc12 [Example 14]
IC50 / nM: 1.2

Compound: Cc1cc(-c2ccc3c(c2)[nH]c2ccc(C4CCNCC4)cc23)cc(C)n1 [Example 2]
IC50 / nM: 22

Compound: COc1cc(-c2cc3[nH]c4ccc(C5CCCNC5)cc4c3c(C)c2C)cn2ncnc12 (stereo not shown) [Example 26]
IC50 / nM: 1.3

(A) Cc1c(-c2cc(C)c3c(c2)[nH]c2ccc(C4CCN(CC(C)(C)O)CC4)cc23)cn(C)c(=O)c1C [Example 18]
(B) c1cc(-c2ccc3c(c2)[nH]c2ccc(C4CCNCC4)cc23)ccn1 [Example 9]
(C) Cc1cc(-c2cc(C)c3c(c2)[nH]c2ccc(C4CCN(CC(C)(C)O)CC4)cc23)cc(C)n1 [Example 21]
(D) COc1cc(-c2cc3[nH]c4ccc(C5CCCN(C6COC6)C5)cc4c3c(C)c2C)cn2ncnc12 (stereo not shown) [Example 33]
(E) Cc1cc2c(cc1-c1cn(C)c(=O)c(C)c1C)[nH]c1ccc(C3CCNCC3)cc12 [Example 16]
Prompt: Please order the records by their reported IC50, lowest number first. API: response body holds the labels in the requested order.
Completion: C, A, D, E, B
(C: 1.5 nM, A: 3.2 nM, D: 15.5 nM, E: 35 nM, B: 383 nM)

(1) COc1cc(-c2cc3[nH]c4ccc(C5CCN(CC(C)(C)O)CC5)cc4c3c(C)c2C)cn2ncnc12 [Example 25]
(2) Cc1noc(C)c1-c1ccc2c(c1)[nH]c1ccc(C3CCNCC3)cc12 [Example 1]
Prompt: // compare measured IC50, left 1 , right 2 , return larger Let me know the label of the one you choose.
Completion: 2
(2: 651 nM, 1: 1.8 nM)

(1) COc1cc(-c2cc3[nH]c4ccc(C5CCCN(CC(C)(C)O)C5)cc4c3c(C)c2C)cn2ncnc12 (stereo not shown) [Example 31]
(2) COc1cc(-c2cc3[nH]c4ccc(C5CN(C(=O)CN(C)C)C5)cc4c3c(C)c2C)cn2ncnc12 [Example 35]
Prompt: # compare IC50 for 1 vs 2 ; return the one with the smaller value Let me know the label of the one you choose.
Completion: 2
